The values you see were collected from patent US20260242735A1.

- target.entity: human CD33 G247A (human, UniProt P20138 18-364)
- Sequence (P20138 18-364 G247A limits assumed): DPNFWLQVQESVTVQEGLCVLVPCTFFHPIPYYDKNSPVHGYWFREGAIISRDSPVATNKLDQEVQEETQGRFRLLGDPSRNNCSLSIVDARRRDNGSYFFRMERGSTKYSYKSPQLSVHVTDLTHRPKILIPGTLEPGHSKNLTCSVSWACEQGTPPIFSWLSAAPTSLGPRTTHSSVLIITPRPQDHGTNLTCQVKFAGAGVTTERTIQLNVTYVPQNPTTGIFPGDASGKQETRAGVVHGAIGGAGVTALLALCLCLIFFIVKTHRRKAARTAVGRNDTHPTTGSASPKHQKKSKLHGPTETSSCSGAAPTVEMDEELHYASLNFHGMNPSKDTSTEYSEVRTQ
- assay: alanine scan, flow cytometry, HEK293-T;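 also: antibody binding to each alanine-substituted CD33 mutant expressed transiently in HEK293-T, read as fluorescence minus background, mean of duplicates, relative to wild-type CD33 set as 100%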
result.type: Mean % WT Binding (% WT binding)
Give bare numbers, in % WT binding.

// recorded Mean % WT Binding for Refmab #2 (antibody, V domains shown, The alanine scan used IgG or Fab) VH: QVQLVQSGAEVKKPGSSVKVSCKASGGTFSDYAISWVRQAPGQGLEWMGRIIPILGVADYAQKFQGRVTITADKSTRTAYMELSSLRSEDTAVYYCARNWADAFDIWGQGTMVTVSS VL: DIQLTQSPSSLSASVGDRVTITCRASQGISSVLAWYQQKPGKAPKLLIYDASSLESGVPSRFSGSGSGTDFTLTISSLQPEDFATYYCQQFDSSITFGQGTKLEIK : 110
